As shown below, each of these molecules has a reported pIC50 value.
Target: UniProtKB P08842
Sequence (P08842 whole entry): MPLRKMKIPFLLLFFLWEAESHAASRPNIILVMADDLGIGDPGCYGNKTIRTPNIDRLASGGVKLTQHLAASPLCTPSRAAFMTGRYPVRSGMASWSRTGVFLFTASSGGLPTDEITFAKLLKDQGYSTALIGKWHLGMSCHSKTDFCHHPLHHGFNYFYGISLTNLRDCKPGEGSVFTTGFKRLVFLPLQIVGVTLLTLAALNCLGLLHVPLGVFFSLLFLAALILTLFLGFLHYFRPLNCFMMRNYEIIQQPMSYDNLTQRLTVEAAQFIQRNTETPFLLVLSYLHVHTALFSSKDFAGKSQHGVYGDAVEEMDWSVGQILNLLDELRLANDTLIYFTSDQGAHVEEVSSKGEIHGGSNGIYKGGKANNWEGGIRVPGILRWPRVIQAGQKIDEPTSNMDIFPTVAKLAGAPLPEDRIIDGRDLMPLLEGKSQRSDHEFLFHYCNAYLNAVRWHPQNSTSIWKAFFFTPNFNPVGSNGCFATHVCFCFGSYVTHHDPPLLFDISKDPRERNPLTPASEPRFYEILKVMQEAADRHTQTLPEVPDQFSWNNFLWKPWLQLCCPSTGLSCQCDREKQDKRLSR
Experiment: Inhibition of steroid sulfatase in human JEG3 cell using [3H] E1S as substrate after 1 hr by scintillation spectrometry analysis
Recall that pIC50 is obtained by taking minus log10 of the concentration measured in molar.

// solved cases for pIC50 follow
| smilesText | measuredTarget | endpointLabel | measValue |
| --- | --- | --- | --- |
| CCCCCCCCN1CCN(C(=O)Nc2ccc(OS(N)(=O)=O)c(F)c2)CC1 | UniProtKB P08842 | pIC50 | 8.06 |
| CCCCCCCCCCN1CCN(C(=O)Nc2ccc(OS(N)(=O)=O)cc2)CC1 | UniProtKB P08842 | pIC50 | 7.48 |
| NS(=O)(=O)Oc1ccc(NC(=O)N2CCN(c3nccc(-c4cc5ccccc5o4)n3)CC2)cc1 | UniProtKB P08842 | pIC50 | 6.86 |
| NS(=O)(=O)Oc1ccc(NC(=O)N2CCN(c3ccc(Cl)c(Cl)c3)CC2)cc1 | UniProtKB P08842 | pIC50 | 5.91 |
| CCCCCCCN1CCN(C(=O)Nc2ccc(OS(N)(=O)=O)cc2)CC1 | UniProtKB P08842 | pIC50 | 5.77 |

Data request: What does the data say about its pIC50? Entry: NS(=O)(=O)Oc1ccc(NC(=O)N2CCN(c3ccc(Cl)cc3)CC2)cc1F
Data returned: 8.29

Data request: Try Cc1cccc(N2CCN(C(=O)Nc3ccc(OS(N)(=O)=O)cc3)CC2)c1C next.
Data returned: 7.18

Data request: Also check NS(=O)(=O)Oc1ccc(NC(=O)N2CCN(c3ccc(Cl)cc3)CC2)cc1
Data returned: 7.03
